Hello, the source for this data is ChEMBL document CHEMBL4483862, in case you need it.

# Tested on: Plasmodium berghei
# protocol.description: Luciferase/luciferin-expressing antifolate-resistant parasites were used to infect a culture of HepG2 cells that were pre-incubated with compounds. Infected hepatocytes emit light due to the luciferase reaction. Assay results are presented as the percent inhibition of light emission compared to control. […]
# Assay type: functional
# condition: sporozoite, PBLUC_HILL_SLOPE 27.9, PBLUC_R_SQUARED 0.298, read-out: LUCIFERASE INFECTION ASSAY - IC50

molecule	IC50 / µM
COCCn1c(C(=O)OC)c(NC(=O)c2ccco2)c2cc(NCC(C)c3ccccc3)cnc21 (stereo unspecified)	6.65

----------
# System: Plasmodium berghei
# protocol.description: Luciferase/luciferin-expressing antifolate-resistant parasites were used to infect a culture of HepG2 cells that were pre-incubated with compounds. Infected hepatocytes emit light due to the luciferase reaction. Assay results are presented as the percent inhibition of light emission compared to control. […]
# Type: functional
# condition: sporozoite, PBLUC_HILL_SLOPE 1.45, PBLUC_R_SQUARED 0.734, read-out: LUCIFERASE INFECTION ASSAY - IC50

chemical.smiles	IC50 (nM)
FC(F)(F)c1c(-c2nc(-c3ccc(Cl)cc3)no2)cnn1-c1ccccc1	262

----------
# Tested on: Plasmodium berghei
# protocol.description: Luciferase/luciferin-expressing antifolate-resistant parasites were used to infect a culture of HepG2 cells that were pre-incubated with compounds. Infected hepatocytes emit light due to the luciferase reaction. Assay results are presented as the percent inhibition of light emission compared to control. […]
# Assay type: functional
# condition: sporozoite, FFLUC_HILL_SLOPE 0.51, FFLUC_R_SQUARED 0.0256, HEPG2TOX_HILL_SLOPE 14.8, HEPG2TOX_R_SQUARED 0.93, PBLUC_HILL_SLOPE 12.3, PBLUC_R_SQUARED 0.48, read-out: LUCIFERASE INFECTION ASSAY - IC50
pIC50: −log10 of the molar value.
property.label: pIC50

chemical.smiles	reported.result
COc1ccc(CCN2C(=O)C=CC2=O)cc1OC	5.35

----------
# System: Plasmodium berghei
# protocol.description: Luciferase/luciferin-expressing antifolate-resistant parasites were used to infect a culture of HepG2 cells that were pre-incubated with compounds. Infected hepatocytes emit light due to the luciferase reaction. Assay results are presented as the percent inhibition of light emission compared to control. […]
# Type: functional
# condition: sporozoite, HEPG2TOX_HILL_SLOPE 1.36, HEPG2TOX_R_SQUARED 0.894, PBLUC_HILL_SLOPE 0.698, PBLUC_R_SQUARED 0.911, read-out: LUCIFERASE INFECTION ASSAY - IC50

chemical.smiles	measured.on	IC50 [nM]
Cc1ccc(/C(C#N)=C/c2ccc(N(C)C)cc2)cc1	Plasmodium berghei	218

----------
# Tested on: Plasmodium berghei
# protocol.description: Luciferase/luciferin-expressing antifolate-resistant parasites were used to infect a culture of HepG2 cells that were pre-incubated with compounds. Infected hepatocytes emit light due to the luciferase reaction. Assay results are presented as the percent inhibition of light emission compared to control. […]
# Assay type: functional
# condition: sporozoite, HEPG2TOX_HILL_SLOPE 2.11, HEPG2TOX_R_SQUARED 0.991, PBLUC_HILL_SLOPE 17, PBLUC_R_SQUARED 0.266, read-out: LUCIFERASE INFECTION ASSAY - IC50
pIC50: −log10 of the molar value.

chemical.smiles	pIC50
CCc1cccc2c(C3=NNC(=Nc4cccc(S(=O)(=O)N(C)C)c4)SC3)c[nH]c12	5.52

----------
# Tested on: Plasmodium berghei
# protocol.description: Luciferase/luciferin-expressing antifolate-resistant parasites were used to infect a culture of HepG2 cells that were pre-incubated with compounds. Infected hepatocytes emit light due to the luciferase reaction. Assay results are presented as the percent inhibition of light emission compared to control. […]
# Type: functional
# condition: sporozoite, HEPG2TOX_HILL_SLOPE 2.17, HEPG2TOX_R_SQUARED 0.89, read-out: LUCIFERASE INFECTION ASSAY - IC50

chemical.smiles	IC50
CN(C)c1cc[n+](CC(=O)Nc2ccc(OC(F)F)cc2)cc1	> 10 µM

----------
# System: Plasmodium berghei
# protocol.description: Luciferase/luciferin-expressing antifolate-resistant parasites were used to infect a culture of HepG2 cells that were pre-incubated with compounds. Infected hepatocytes emit light due to the luciferase reaction. Assay results are presented as the percent inhibition of light emission compared to control. […]
# Format: functional
# condition: sporozoite, PBLUC_HILL_SLOPE 1.95, PBLUC_R_SQUARED 0.375, read-out: LUCIFERASE INFECTION ASSAY - IC50
pIC50: −log10 of the molar value.
property.label: pIC50

chemical.smiles	measured.on	property.label	reported.result
CC(=O)n1nc(NCc2cccc(Cl)c2)nc1NCc1cccc(Cl)c1	Plasmodium berghei	pIC50	5.37

----------
# System: Plasmodium berghei
# protocol.description: Luciferase/luciferin-expressing antifolate-resistant parasites were used to infect a culture of HepG2 cells that were pre-incubated with compounds. Infected hepatocytes emit light due to the luciferase reaction. Assay results are presented as the percent inhibition of light emission compared to control. […]
# Assay type: functional
# condition: sporozoite, PBLUC_HILL_SLOPE 0.135, PBLUC_R_SQUARED 0.112, read-out: LUCIFERASE INFECTION ASSAY - IC50
pIC50: −log10 of the molar value.
property.label: pIC50

molecule	reported.result
C=CCNC(=S)N1CCc2sccc2C1c1ccc(OC)cc1 (stereo unspecified)	< 5.02

----------
# System: Plasmodium berghei
# protocol.description: Luciferase/luciferin-expressing antifolate-resistant parasites were used to infect a culture of HepG2 cells that were pre-incubated with compounds. Infected hepatocytes emit light due to the luciferase reaction. Assay results are presented as the percent inhibition of light emission compared to control. […]
# Type: functional
# condition: sporozoite, read-out: LUCIFERASE INFECTION ASSAY - IC90
Recorded IC90 values for a group of molecules are listed next.
property.label: IC90

molecule	property.label	reported.result
C=CCNC(=O)CSc1nccc(-c2sc3sc(Br)c(C)c3c2C)n1	IC90	> 7.26 µM
Cc1cc(C)cc(Nc2ncnc3ccsc23)c1	IC90	> 10 µM
Cc1ccc(S(=O)(=O)N/N=C/c2c(C)nn(-c3ccccc3)c2C)cc1[N+](=O)[O-]	IC90	> 10 µM
CCCn1c(NC(=O)c2c(C)nn(Cc3ccccc3)c2Cl)nc2ccccc21	IC90	> 10 µM
ONC(=Nc1cccc(C(F)(F)F)c1)c1ccccc1	IC90	> 11.8 µM
O=C(N/N=C/c1cccc(O)c1O)c1ccc(CN2c3cccc4cccc(c34)S2(=O)=O)cc1	IC90	> 10 µM
COc1ccc(-c2cnc3sc(NCCc4ccncc4)nn23)cc1OC	IC90	8.35 µM
COc1ccc(CC2(Cc3ccc(OC)c(F)c3)C(=O)N(c3ccccc3C)C(=O)c3ccccc32)cc1F	IC90	> 10 µM
C=C(CS(=O)(=O)c1ccccc1)C(=O)Nc1ccc(C(F)(F)F)cc1	IC90	7.91 µM
CCn1c(-c2ccccc2)c(C(=O)COc2ccccc2OC)c2ccccc21	IC90	> 10 µM
O=C(NCc1cccc(Cl)c1)C1=COC2=NC(=O)N(Cc3cccc(Cl)c3)CCN12	IC90	> 10 µM
O=C(NCc1cn2ccccc2n1)c1cccc(S(=O)(=O)N2CCc3ccccc3C2)c1	IC90	> 10 µM
NC(=NNC(=S)Nc1ccc(Cl)cc1)c1ccccn1	IC90	> 10.8 µM
C/N=c1\scc(-c2ccc(C)c(C)c2)n1/N=C/c1ccc[nH]1	IC90	> 10 µM
COc1ccc(-c2c(C)nn3c(=O)cc(-c4ccccc4)[nH]c23)cc1	IC90	9.94 µM
COc1ccccc1/C=C(\C#N)c1ccc(C)cc1	IC90	> 13.2 µM
CC(OC(=O)c1cc2ccccc2[nH]1)C(=O)Nc1cccc(C#N)c1 (configuration not stated)	IC90	> 10 µM
O=C(Cc1noc2ccccc12)N1CCN(c2ccc(C(F)(F)F)cn2)CC1	IC90	> 10 µM
Cc1occc1C(=O)N/N=C/C=C1\N(C)c2ccccc2C1(C)C	IC90	> 10 µM
CC1CCN(S(=O)(=O)c2ccc(C(=O)NCc3cccc(C(F)(F)F)c3)cc2)CC1	IC90	> 10 µM
C[n+]1c(-c2ccccc2)cc(CCCCc2cc(-c3ccccc3)[n+](C)c(-c3ccccc3)c2)cc1-c1ccccc1	IC90	> 10 µM
COc1ccc2c(-c3ccccc3)cc(NCCc3ccc(S(N)(=O)=O)cc3)nc2c1	IC90	> 10 µM
O=C(O)c1cccc2cccc([S+]([O-])c3ccccc3CO)c12 (configuration not stated)	IC90	> 10.1 µM
Cc1cc(I)ccc1N1C(=O)C=CC1=O	IC90	> 10.5 µM
Cn1c(N)c(C(=O)COC(=O)c2c3c(nc4ccccc24)/C(=C/c2ccc(O)cc2)CCC3)c(=O)n(C)c1=O	IC90	6.45 µM
O=C(Cc1ccccc1)OC1(C(F)(F)F)C(=O)Nc2c1ccc1ccccc21 (configuration not stated)	IC90	> 10 µM
CC1Cc2cc(C(=O)CSc3nnc(Cc4cccs4)n3C)ccc2N1S(C)(=O)=O (configuration not stated)	IC90	> 10 µM
Cc1cc(-c2nc(=O)c3ccccc3[nH]2)c(C)n1CC(C)C	IC90	4.1 µM
CCCS(=O)(=O)/C(C#N)=N/Nc1cc(C(F)(F)F)cc(C(F)(F)F)c1	IC90	4.41 µM
COc1ccc(NS(=O)(=O)c2cccc(C(=O)N/N=C(\c3ccccc3)c3ccccn3)c2)cc1	IC90	6.62 µM
FC(F)(F)Oc1cccc(-c2cnc3ccc(-c4cccs4)nn23)c1	IC90	7.53 µM
O=C(Nc1ncccc1O)c1ccc(-c2ccccc2)cc1	IC90	8 µM
O=C(NCC1CCCO1)c1cc2c([nH]c3ccccc32)c(-c2ccc(F)cc2)n1 (configuration not stated)	IC90	8.34 µM
FC(F)(F)Oc1cccc(-c2ccc3ncc(-c4ccoc4)n3n2)c1	IC90	> 10 µM
CCc1ccc(S(=O)(=O)Nc2cc(Sc3ccc(C)cc3)c(O)c3ccccc23)cc1	IC90	> 10 µM
CN(Cc1ccc(C(F)(F)F)cc1)C(=O)c1cc(Br)ccc1O	IC90	> 10 µM
O=c1c(NNc2cccc(C(F)(F)F)c2)c(CSc2ccc(Cl)cc2)[nH]n1-c1ccccc1	IC90	> 6.72 µM
CCSc1nc2scc(C(F)(F)F)n2c(=O)c1C(=O)N1CC(C)CC(C)C1 (configuration not stated)	IC90	> 7.87 µM
O=C(NNC(=O)c1ccccn1)c1ccc(C2SCCCS2)cc1	IC90	> 10 µM
Cc1ccc(C(C)C)c(Oc2nnnn2-c2ccccc2)c1	IC90	4.38 µM
O=C(Nc1cccc(-c2nc3ccccc3[nH]2)c1)c1cccc(S(=O)(=O)N2CCCC2)c1	IC90	> 10 µM
O=C(CN1CCN(Cc2nc3ccccc3s2)CC1)NN1C(=O)NC2(CCCCC2)C1=O	IC90	> 10 µM
